measured-target: T1, MMP-7
T1 sequence (P09237 95-267, species assumed, looked up): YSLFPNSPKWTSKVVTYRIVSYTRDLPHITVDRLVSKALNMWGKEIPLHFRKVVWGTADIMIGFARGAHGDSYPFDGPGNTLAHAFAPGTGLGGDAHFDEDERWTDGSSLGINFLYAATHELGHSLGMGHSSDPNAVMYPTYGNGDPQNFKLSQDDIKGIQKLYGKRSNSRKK
experimental-details: cell-based or functional assay
Known IC50 for the inhibition of MMPs using a fluorescein conjugated gelatin of a selection of binders
The answer is to be given in µM; state only the numeric part.

Completed entries (count: 2):
> print(dat)
                                     binder  value
1  NENLLRFFVAPFPEVFG [NENLLRFFVAPFPEVFG (SEQ ID NO:21)]    850
2  LNENLLRFFVAPFPEVFG [LNENLLRFFVAPFPEVFG (SEQ ID NO:20)]    300

Moving on to another binder below.
Query block: Need IC50 for the inhibition of MMPs using a fluorescein conjugated gelatin, item VENLHLPLPLL [VENLHLPLPLL (SEQ ID NO:18)]
Result block: 250
